Reported Ki against Serine protease 1 (Bos taurus, UniProt P00760), gathered from multiple publications, appears below.
Molecular target: Serine protease 1 (Bos taurus, UniProt P00760)
Sequence (P00760 whole entry): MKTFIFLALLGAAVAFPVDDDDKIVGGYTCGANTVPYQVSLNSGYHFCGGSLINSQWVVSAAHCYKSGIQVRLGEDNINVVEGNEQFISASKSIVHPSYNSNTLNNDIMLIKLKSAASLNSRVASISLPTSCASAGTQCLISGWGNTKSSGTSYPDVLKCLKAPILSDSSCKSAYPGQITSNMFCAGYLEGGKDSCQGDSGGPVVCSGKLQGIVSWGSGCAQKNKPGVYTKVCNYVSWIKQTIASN
outcome measure: Ki (µM)

| compound | Ki / µM |
| --- | --- |
| N=C(N)c1cccc(C[C@H](NS(=O)(=O)c2ccc3ccccc3c2)C(=O)N2Cc3ccccc3C[C@@H]2C(=O)OCc2ccccc2)c1 | 1.2 |
| N=C(N)c1cccc(C[C@H](NS(=O)(=O)c2ccc3ccccc3c2)C(=O)N2CCC[C@H]2C(=O)OCc2ccccc2)c1 | 1 |
| COc1ccc2ccc(S(=O)(=O)N(Cc3cc[nH]n3)[C@H]3CCN(Cc4cccc(C(=N)N)c4)C3=O)cc2c1 | 1.39 |
| COC(=O)[C@H]1Cc2ccccc2CN1C(=O)[C@H](Cc1cccc(C(=N)N)c1)NS(=O)(=O)c1ccc2ccccc2c1 | 1.2 |
| CS(=O)(=O)N1CCN(C(=O)C(Cc2cccc(C(=N)N)c2)NS(=O)(=O)c2ccccc2)CC1 (stereo not given) | 1 |
